biological target: Metabotropic glutamate receptor 5 (Homo sapiens); experiment: Negative allosteric modulation activity at mGlu5 receptor
Sequence (P41594 whole entry): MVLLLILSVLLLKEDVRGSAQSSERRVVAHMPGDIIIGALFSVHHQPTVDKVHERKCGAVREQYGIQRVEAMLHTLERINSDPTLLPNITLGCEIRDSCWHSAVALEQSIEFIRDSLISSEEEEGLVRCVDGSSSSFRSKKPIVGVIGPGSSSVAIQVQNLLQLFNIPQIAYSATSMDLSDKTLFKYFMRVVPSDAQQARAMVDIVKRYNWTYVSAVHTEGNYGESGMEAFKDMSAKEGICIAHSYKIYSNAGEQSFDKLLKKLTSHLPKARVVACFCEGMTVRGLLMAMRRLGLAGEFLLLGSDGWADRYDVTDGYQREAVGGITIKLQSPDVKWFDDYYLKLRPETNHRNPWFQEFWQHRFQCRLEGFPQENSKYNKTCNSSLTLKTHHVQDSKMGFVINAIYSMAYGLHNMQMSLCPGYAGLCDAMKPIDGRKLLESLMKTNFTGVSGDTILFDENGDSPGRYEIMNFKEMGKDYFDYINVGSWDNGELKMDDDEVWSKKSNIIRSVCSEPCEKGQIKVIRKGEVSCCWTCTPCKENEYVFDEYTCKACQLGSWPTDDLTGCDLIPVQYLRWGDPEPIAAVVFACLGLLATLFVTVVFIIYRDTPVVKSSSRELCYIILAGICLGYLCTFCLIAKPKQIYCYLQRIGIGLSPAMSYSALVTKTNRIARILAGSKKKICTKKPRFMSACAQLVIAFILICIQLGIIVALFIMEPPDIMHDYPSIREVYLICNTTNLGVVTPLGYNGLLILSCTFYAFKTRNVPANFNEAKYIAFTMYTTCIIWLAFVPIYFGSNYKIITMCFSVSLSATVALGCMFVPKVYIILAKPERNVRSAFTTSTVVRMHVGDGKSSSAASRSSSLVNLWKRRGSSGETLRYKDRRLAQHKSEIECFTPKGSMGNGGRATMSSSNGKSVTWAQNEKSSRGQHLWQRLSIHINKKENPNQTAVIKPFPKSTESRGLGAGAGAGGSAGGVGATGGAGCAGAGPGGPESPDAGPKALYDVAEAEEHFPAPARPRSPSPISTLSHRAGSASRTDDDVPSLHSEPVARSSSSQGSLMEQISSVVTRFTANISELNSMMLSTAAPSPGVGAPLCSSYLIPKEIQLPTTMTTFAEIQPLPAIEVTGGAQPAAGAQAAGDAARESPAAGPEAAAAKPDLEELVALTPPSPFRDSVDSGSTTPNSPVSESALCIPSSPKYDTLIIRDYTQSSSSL
measureName: IC50 (nM)

Cc1cccc(C#Cc2cncnc2)c1: 7.5
C(#Cc1cncnc1)c1ccccc1: 486

###

The reader will find reported EC50 values listed item by item below.
Target: Muscarinic acetylcholine receptor M1 (Homo sapiens, UniProt P11229)
Sequence (P11229 whole entry): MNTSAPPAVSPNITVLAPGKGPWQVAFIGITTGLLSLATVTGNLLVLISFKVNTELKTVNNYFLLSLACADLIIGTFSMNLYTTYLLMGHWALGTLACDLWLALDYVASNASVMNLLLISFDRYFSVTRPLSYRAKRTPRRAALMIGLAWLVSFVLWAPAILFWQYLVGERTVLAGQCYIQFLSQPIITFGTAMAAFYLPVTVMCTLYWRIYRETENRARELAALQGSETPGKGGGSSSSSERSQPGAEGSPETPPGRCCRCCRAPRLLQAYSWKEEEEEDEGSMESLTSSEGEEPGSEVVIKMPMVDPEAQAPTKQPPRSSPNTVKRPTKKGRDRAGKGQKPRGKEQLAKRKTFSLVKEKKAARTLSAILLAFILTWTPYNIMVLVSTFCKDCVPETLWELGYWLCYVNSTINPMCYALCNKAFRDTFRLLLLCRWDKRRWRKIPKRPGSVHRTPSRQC
Test: Positive allosteric modulation activity at muscarinic M1 receptor
measureName: EC50 (nM)

Cn1cc(-c2ccc(Cn3cc(C(=O)O)c(=O)c4c(F)cccc43)c(F)c2)cn1: 41
O=C(O)c1cn(Cc2ccc(-c3ccccc3)cc2)c2c(F)cccc2c1=O: 380
O=C(O)c1cn(Cc2ccc(-c3ccccc3)cc2)c2c(F)ccc(F)c2c1=O: 270
O=C(O)c1cn(Cc2ccc(-c3ccccc3)cc2)c2cccc(F)c2c1=O: 84

All figures here come from ChEMBL document CHEMBL2062464.
